Test system: HS 578T breast
assayRemarks: NCI tumour cell line growth inhibition, 48 h
propertyLabel: TGI

compound	endpointResult
OCC12C3C4C5C3C1C5C42 (stereo unspecified)	> 100 µM
C[n+]1ccc(/C2=C3\C=CC(=N3)/C(c3cc[n+](C)cc3)=c3/cc/c([nH]3)=C(\c3cc[n+](C)cc3)C3=N/C(=C(/c4cc[n+](C)cc4)C4C=CC2N4)C=C3)cc1	> 100 µM
COc1cc2c(cc1OC)C1C=NC(C2)c2cc(OC)c(OC)cc21 (stereo unspecified)	> 100 µM
O=C(/C=C/c1cc2ccccc2[nH]c1=O)/C=C/c1cc2ccccc2[nH]c1=O	> 100 µM
Cc1cc(C)c(-n2[nH]c(=O)n(C)c2=O)c(C)c1	> 100 µM
C=C(Br)CNC(=O)Nc1ccc(Cl)c(Cl)c1	54.3 µM
O=[N+]([O-])c1cccc2nnccc12	> 100 µM
CC(C)C[C@H](NC(=O)CNC(=O)c1cc(Cl)ccc1Cl)B1OC(=O)CC(CC(=O)O)(C(=O)O)O1 (stereo partly specified)	80.7 µM
CN(C)c1ccc(C(Cc2ccccc2)C2NC(=S)NC2=O)cc1 (stereo unspecified)	> 100 µM
N#CC1(C(N)=O)C(c2ccc(Cl)cc2)CC(=O)CC1c1ccc(Cl)cc1 (stereo unspecified)	61.6 µM
O=C(O)c1ccc(C(=O)c2ccccc2)c(C(=O)O)c1	> 100 µM
O=[N+]([O-])c1nccn1CCCNc1ccnc2cc(Cl)ccc12	> 100 µM
O=c1ssc(=Nc2ccccc2)n1-c1ccccc1	98.7 µM
O=[N+]([O-])c1ccc(C=Cc2ccccc2)cc1.[C-]#[O+].[C-]#[O+].[C-]#[O+].[Cr]	> 100 µM
COc1cc2c(cc1C1COc3cc4occc4cc3C1=O)OCO2 (stereo unspecified)	89.8 µM
O=C1OCC2=C1C(c1ccc(Cl)c(Cl)c1)c1cc3c(cc1N2CCO)OCCO3 (stereo unspecified)	> 37.6 µM
COC(=O)[C@H](CCSC)NC(=O)N[C@H](C)c1ccccc1	> 100 µM
COc1ccccc1-c1cc(=O)c2cc(C)cnc2[nH]1	> 100 µM
CC(=O)OC12C=C(C)C(C(C)C1)C1C(=O)N(CCN3CCOCC3)C(=O)C12 (stereo unspecified)	> 100 µM
O=C1NC(=O)C(N2C(=O)c3ccccc3C2=O)CC1O (stereo unspecified)	> 100 µM
C=CCC1(OCc2ccccc2)C(=O)C(=O)OC1C1COC(C)(C)O1 (stereo unspecified)	> 100 µM
CCN(CC)CC1CCCCN1CC(=O)N1c2ccccc2C(=O)Nc2cccnc21 (stereo unspecified)	> 100 µM
CC(C)(C)OC(=O)NC(Cc1ccccc1)OCc1ccccc1 (stereo unspecified)	51.5 µM
COc1ccc(C2SCC(=O)N2c2ccc(-c3ccc(-n4c(-c5ccccc5)nc5ccccc5c4=O)cc3)cc2)cc1OC (stereo unspecified)	> 100 µM
FC(F)(F)c1ccc(-c2cnc(-c3ncon3)nc2NC2CCCCCC2)cc1	> 100 µM
O=C(OCc1ccc2ccccc2n1)c1cn(C2CC2)c2cc(N3CCN(Cc4ccc5ccccc5n4)CC3)c(F)cc2c1=O	> 100 µM
O=C(c1ccccc1)c1ccc2nc(-c3c(Cl)c(Cl)c(Cl)c(Cl)c3C(=O)N/N=C/c3ccc(Cl)cc3)[nH]c2c1	> 100 µM
COc1cc2c(c(OC)c1OC)-c1ccc(SC)c(=O)cc1C(NC(=O)c1ccccc1)CC2 (stereo unspecified)	5.34 µM
CC1(/C=C/CCSc2ccccc2)CC(=O)C2CC1C2(C)C (stereo unspecified)	> 100 µM
C=CC[C@@H](N)C(=O)N(C)[C@@H](C)[C@@H](O)c1ccccc1	> 100 µM
CC1=NC(=Cc2cccc(Cl)c2)C(=O)N1n1c(-c2ccccc2)nc2ccccc2c1=O	> 100 µM
CNCCCNCCCCNCCCN1C(=O)c2ccc3c4c(ccc(c24)C1=O)C(=O)N(CCCNCc1ccccc1OC)C3=O	22 µM
NCCSS(=O)(=O)CCN	> 100 µM
O=c1[nH]cc(-c2c[nH]c3ccccc23)nc1-c1c[nH]c2ccccc12	39.9 µM
C/C(=C\c1ccc2ccccc2c1)[N+](=O)[O-]	9.26 µM
O=C(O)CN1CCN(CC(=O)O)CC(=O)[O][Hg][O]C(=O)C1	> 71.3 µM
COC1=CC(=O)C2=C(C1=O)[C@H]1CC[C@]3(C)[C@@H](O)CC[C@H]3[C@@H]1CC2	42.7 µM
COc1ccc(-c2[nH]c3ccccc3c2-c2ccc(OC)cc2)cc1	43.8 µM
C/C(=N\Nc1ccc([N+](=O)[O-])cc1[N+](=O)[O-])c1sc(-n2nc(-c3ccccc3)cc2-c2ccccc2)nc1C	> 100 µM
CO/C(=N\N=C\c1ccc(OC)c(OC)c1)c1ccncc1	> 10 µM
O=C(NC1=C(Cl)C(=O)c2ccccc2C1=O)c1ccc(F)cc1	64.7 µM
